Tested on: MS2 coat protein
Protocol Description: apparent KD of MS2 coat protein, switch ON state; designed switch direction (-1 OFF switch, 1 ON switch): -1; higher = weaker reporter binding
Protocol Conditions: FMN input: 0 or 200 uM; Eterna round: R93 (includes R88 designs)
Quantity Measured: apparent KD of MS2 coat protein (nM)

| Sequence | Quantity Measured | Unit Label | Result Number |
| --- | --- | --- | --- |
| AAAAAGUGAGGAUAUACAUGAAAAAAAAAAAAAAAAAAAAAACAUGAGGAUCACCCAUGUAGAAGGCGCAAAAA [GC GU GC sandwich] | apparent KD of MS2 coat protein | nM | 31.5 |
| AAAACGAUAGGAUAUACAUGAGGAUCACCCAUGUUAAAAUGUAGAAGGCUGAAAAAAAGUAGAAGGAUCAAAAA [EXC - 3] | apparent KD of MS2 coat protein | nM | 29.5 |
| AACAGUACAGGAUAUACAUGAGGAUCACCCAUGUGAAAAUUAAGUGGCGAACCACAGUGUAGAAGGGUACUGGA [Mat - Exclusion 3 - Eli mod - D51] | apparent KD of MS2 coat protein | nM | 81.8 |

====

Tested on: K4 kissing-loop RNA reporter;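 further: bound reporter read as fluorescence of individual clusters on recovered sequencing chips by microscopy, with normalized cluster intensities fitted with a binding model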
Protocol Description: apparent KD of K4 kissing-loop reporter; higher = weaker reporter binding
Protocol Conditions: Eterna round: R107; input ligand: arginine 13.2 mM
Short version: apparent KD of K4 kissing-loop reporter at least 0.2 µM is true (1), less is false (0).

| Sequence | Target Or System | Assigned Category |
| --- | --- | --- |
| GCCGUACGCAUGGAUACCAGCAAGCAUAGCAGGAAACUGCUAUGCACCAGUGAUGUUGGAUGCCCUUGGCAGCCAUGCGUACGGC | K4 kissing-loop RNA reporter | true (1) |
| GGUAGCAUGGCGGCCGCCACUGAGGCCCUAUGCGAGUCCUCUACAACCUAGUGAUGUUAGGCGUCCAGGACCGGGCCAUGCUACC | K4 kissing-loop RNA reporter | false (0) |
| CGCAGUGAUGUUGCGAGUAGCUACAGGGAAGGAGCGUGCUAGAGCACAGGUAGGUCGCCCACGCAGUGAUGUUGUGUUAAAGGGU [Exclusion Arginine A GF 12] | K4 kissing-loop RNA reporter | false (0) |
| GCAGUGAUGUUGCAAAAUGUCUGUGGUAGUCGAGGACCGGUACGGCCGCCACUCGGUGAGAACCUGCUAAUACAUCGAUAAGUGA [IX] | K4 kissing-loop RNA reporter | true (1) |
| AAGCAGUCACCCGAAGCCAUCGAAGAUGGACGAGGACCGGUACGGCCGCCACUCGGAGUGAUGUUCCGAAGACUGCAAAAUAAAA | K4 kissing-loop RNA reporter | true (1) |
| AAAAUAAGCCAGUGAUGUUGGUAUGCAGAUACCAGCGACGAAAGUCGCCCUUGGCAGCUGUGGACGUACAAAAUAAGUACGUCCU | K4 kissing-loop RNA reporter | false (0) |
| ACGAUUUACAGAAGGAGCGUGUAUUUAUCUACAAUUUUCUUAGCGAGUGAUGUUCGUUAUACACAGGUAGGUCGCUGUAUAUCGA [JR_ExcArginiB_Sub013] | K4 kissing-loop RNA reporter | true (1) |
| CAGAACUUGUAUAUAGGGUAUAUAAGAGAUACCAGUCAAAUUAAAGACCCUUGGCAGCUCAGGCGAGUGAUGUUCGCAGGCUAAC [Exclusion Theophylline A GF 17] | K4 kissing-loop RNA reporter | false (0) |
| AAAUAGAUCAGUCACCCAGUGAUGUUGGAAGGAGCGUGCGAAAGCACAGGUAGGUCGCCAUAAUAAAAGUGGCUGAUCAAAAUAA | K4 kissing-loop RNA reporter | true (1) |
| AAGUUAUGAUCUGAUACCAGACUUUAUCUUGUUUAUAAGUCAAGUGAUGUUUGACUAUUAGUCCCUUGGCAGCAGUAUUGUUUAA [#18 K4 Theophylline B Same State] | K4 kissing-loop RNA reporter | true (1) |
| UGAUAGGACAGAAGGAGCGGAAGUGAUGUUUCCAAAAGGAUAAGGUGUCAAAAGACACCCUUCCAGGUAGGUCGCUGUCCUAUCU [ArgBX 13 #Palindromic #SwitchBubble #StaticStem] | K4 kissing-loop RNA reporter | false (0) |
| AAGCAGUCACUCGACGCCAUCGAAGAUGGGCGAGGACCGGUACGGCCGCCACUCGGAGUGAUGUUCCGAAGACUGCAAAAUAAAA [MatMod 6 - Jieux - Exclusion - Tryptophan A] | K4 kissing-loop RNA reporter | true (1) |

====

Tested on: MS2 coat protein
Protocol Description: apparent KD of MS2 coat protein; designed switch direction (-1 OFF switch, 1 ON switch): -1; higher = weaker reporter binding
Protocol Conditions: input ligand: FMN 200 uM

| Sequence | Unit Label | apparent KD of MS2 coat protein |
| --- | --- | --- |
| AGCAGACGAGGAUAUAGAUUUGAUAACAUGAGGAUCACCCAUGUGAUCGAUAGAUCAGAUUUAGAAGGCGUCUGCU [E5/8-A1] (Eterna round: R97, puzzle: Exclusion 5) | nM | 412 |
| UGUUGUCGCGCAGGAUAUGAGGAUCACCCAUAUAAAGGAUAUGAAAAGAAGGUUCUGAGGAUCACCCAGAAGGGCGGGACAACU [pwkr exNG2 2xF5 2xFMN.18] (Eterna round: R96, puzzle: Exclusion NG 2) | nM | 347 |
| UAAUAACAAGCGAGAUCCUACAUGAGGAUCACCCAUGUGCUCGUCUUAUAAGGUACUGUGACGAAAGUCACGGUACC [Eli 87 + Mat D67] (Eterna round: R97, puzzle: Sensor, turn-off variant 1) | nM | 17.9 |
| AGAGAAUACUCAGGAUAUCGGAAUAGAAAGAGACGAGAAGGGAGACAUGAGGAUCACCCAUGUGAAGUCUUGAGGCUGCAUGGA [Prohibition 26 - Jieux - Exclusion NG 1] (Eterna round: R96, puzzle: Exclusion NG 1) | nM | 197 |
| CUAGACGGAGGAUAUACGAGAUCGAAAGAUCGGCGAUCCCUACAUGAGGAUCACCCAUGUAGAAGGCUGUUUAG [Mod 19 - Jieux - Exclusion 2] (Eterna round: R97, puzzle: Exclusion 2) | nM | 69.9 |
| UCUUAUUGAGGAUAUACAUUAAAAUACAUGAGGAUCACCCAUGUUCUUCAAUGUAUAUAUGUAGAAGGCAGAAGAU [Mat - Exclusion 5 - JL Mod - D26] (Eterna round: R97, puzzle: Exclusion 5) | nM | 155 |
| GGCACACAUGAGGAUCACCCAUGUGAGGAUAUUAGGCGAUCGUCGAUAGACGAUAGCCUGAGAAGGCACAUGCC [Mat - Exclusion 1 - Eli Mod - D12] (Eterna round: R97, puzzle: Exclusion 1) | nM | 76.9 |
| AAUUUACAUGAGGAUCACCCAUGUGAGGAUAUAUACAAAGAAGUGUUAGUAAGAAUGUAUAGAAGGCGCGUGAU [JR_Exc1_Sub040] (Eterna round: R97, puzzle: Exclusion 1) | nM | 71.4 |
| AGGUCCUUCUGGACACAUGAGGAUCACCCAUGUGAGGUCAGCGAGGAUAUCGGUCAAUAAUGUGACGAGAAGGCGCGGACCGAU [Ex NG3 #58] (Eterna round: R96, puzzle: Exclusion NG 3) | nM | 31.6 |
| GGUUUGGGAGGAUAUGGUUUGAAUAACAUGAGGAUCACCCAUGUAAAUAGAUCUUCUAGGCCAGAAGGCUCGGGCC [-22.1, -20.72 kcal, A 28%] (Eterna round: R97, puzzle: Exclusion 5) | nM | 46 |
| CCCAUGUCAGGAUAUUAAUUGAGCAGGAAGCCCUGUCCACUUGAGAAGGGACAUGAGGAUCACCCAUGUAAAAC [Radiaena] (Eterna round: R97, puzzle: Exclusion 4) | nM | 138 |
| GGCCCAUGAGGAUAUCAGUCUGGAUCAGACUAGAUCCUGACUGAGAAGGCACAUGAGGAUCACCCAUGUAGGCC [Eli 4x 4.30] (Eterna round: R97, puzzle: Exclusion 4) | nM | 17.3 |
| UAUAUAUAGUAAGGAUAUGUAUUAAGUUUAUAAACAGAAGGUACUGACAUGAGGAUCACCCAUGUUUUAGUGUGGGCAUGUAGA [JMF's solution 76] (Eterna round: R96, puzzle: Exclusion NG 1) | nM | 122 |
| UAGUGAGCGUGAGGAAUAUACAUGAGGAUCACCCAUGUUUGCUAAUAUAUUGCUCGUCUUAUAACAACAAUUAACUG [Mod-hoo-honey#abc] (Eterna round: R97, puzzle: Sensor, turn-off variant 1) | nM | 27.5 |
| GCUUGUGGGCAAGGAUAUCCUACGUUGUUCUGGUUCGUGUCUGUCACAUGAGGAUCACCCAUGUGGGAGAAGGUGCAUUUGGUU [Design 60] (Eterna round: R96, puzzle: Exclusion NG 2) | nM | 15.4 |
| GAUCAUGCAGGAUAUACAGUUUCCAUGAUAACAUGGUCCUCACAUGAGGAUCACCCAUGUAGAAGGGCAUGAUC [Omei Ex2 A29] (Eterna round: R97, puzzle: Exclusion 2) | nM | 258 |
| AGUACUAACACGAAAGUGUUAGUACUAUAAGCUUGUGAUACAUGAGGAUCACCCAUGUCCUCAUAAGCUCGUCUUAU [Mat - Sensor v3 - Turn-off var 2 - D101] (Eterna round: R96, puzzle: Sensor v3, turn-off variant 2) | nM | 21.1 |
| GGAAGGUGAGGAUAUACAAAGACGGAAACGUCAGGUGAGAGACAUGAGGAUCACCCAUGUAGAAGGCACGGAGA [AK-MS2ROC-r4-exclusion2-16.1] (Eterna round: R97, puzzle: Exclusion 2) | nM | 279 |

Data provenance: the supplement of paper PMC9170038
